measured target: reuptake of noradrenaline (NA) in synaptosomes (Rattus norvegicus)
Construct: in synaptosomes as described in WO 97/16451; from tissue; method in WO 97/16451
Sequence (Q63380 1-617): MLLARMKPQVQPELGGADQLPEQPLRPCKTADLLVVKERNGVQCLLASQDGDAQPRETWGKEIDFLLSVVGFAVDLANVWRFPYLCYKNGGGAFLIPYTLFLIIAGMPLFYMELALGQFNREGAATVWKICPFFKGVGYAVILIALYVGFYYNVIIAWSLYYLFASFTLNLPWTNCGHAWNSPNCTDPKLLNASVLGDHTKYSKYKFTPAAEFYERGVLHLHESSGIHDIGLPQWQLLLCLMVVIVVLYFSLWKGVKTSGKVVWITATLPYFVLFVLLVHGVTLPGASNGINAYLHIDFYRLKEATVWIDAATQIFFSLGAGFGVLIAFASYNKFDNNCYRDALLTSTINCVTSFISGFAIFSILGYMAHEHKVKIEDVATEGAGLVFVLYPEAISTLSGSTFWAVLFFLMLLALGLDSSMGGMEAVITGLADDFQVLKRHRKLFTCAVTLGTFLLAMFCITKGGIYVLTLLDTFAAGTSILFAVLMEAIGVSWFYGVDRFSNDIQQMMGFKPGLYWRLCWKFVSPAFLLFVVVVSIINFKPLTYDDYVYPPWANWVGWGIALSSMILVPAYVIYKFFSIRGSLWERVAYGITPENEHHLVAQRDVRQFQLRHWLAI
assay details: Inhibition of noradrenaline reuptake in synaptosomes
Assay type: biochemical
assay context: 3H-NA, synaptosomes; read-out: NA-uptake IC50
readout: pIC50
pIC50 here is simply -log10 of the concentration when that concentration is written in mol/L.

Query: Output pIC50 of `CN1[C@@H]2CC[C@H]1C[C@H](Oc1ccc3cc(Br)c(=O)oc3c1)C2`
Reply: 7.77

* * *

measured target: reuptake of serotonine (5-HT) in synaptosomes (Rattus norvegicus, UniProt P31652)
Construct: in synaptosomes as described in WO 97/16451; from tissue; method in WO 97/16451
Sequence (P31652 whole entry): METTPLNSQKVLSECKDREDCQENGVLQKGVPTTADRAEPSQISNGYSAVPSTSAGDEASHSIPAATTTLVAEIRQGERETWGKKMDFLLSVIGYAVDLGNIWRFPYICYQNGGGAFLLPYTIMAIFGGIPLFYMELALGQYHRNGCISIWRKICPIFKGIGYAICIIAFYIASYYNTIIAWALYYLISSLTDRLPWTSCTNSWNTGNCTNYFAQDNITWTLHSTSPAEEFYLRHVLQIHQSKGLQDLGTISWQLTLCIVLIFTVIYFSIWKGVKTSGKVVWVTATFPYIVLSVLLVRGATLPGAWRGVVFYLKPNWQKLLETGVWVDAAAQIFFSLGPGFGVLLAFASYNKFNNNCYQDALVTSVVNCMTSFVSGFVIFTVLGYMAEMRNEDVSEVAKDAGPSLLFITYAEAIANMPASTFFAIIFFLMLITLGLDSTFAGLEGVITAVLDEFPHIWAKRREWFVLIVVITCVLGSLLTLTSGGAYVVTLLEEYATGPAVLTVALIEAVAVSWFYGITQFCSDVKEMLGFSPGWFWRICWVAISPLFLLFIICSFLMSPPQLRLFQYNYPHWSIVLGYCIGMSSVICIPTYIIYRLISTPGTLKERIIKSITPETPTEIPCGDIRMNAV
assay details: Inhibition of serotonin reuptake in synaptosomes
Assay type: biochemical
assay context: 3H-5-HT, synaptosomes; read-out: 5-HT-uptake IC50
// values below are reported pIC50
pIC50 here is simply -log10 of the concentration when that concentration is written in mol/L.

{"columns": ["smiles representation", "pIC50"],
 "data": [
  ["O=c1oc2cc(O[C@@H]3C[C@H]4CC[C@@H](C3)N4)ccc2cc1Cl", 9.23]
]}

Shift focus to the following entry.
Query: Output pIC50 of `CN1[C@@H]2CC[C@H]1C[C@H](Oc1ccc3cc(Br)c(=O)oc3c1)C2`
Reply: 8.92
